# Test system: MCF7 (human breast cancer) cells
# Assay Name: MTT viability assay, MCF7
# Assay type: cell-based
# Condition Context: Homo sapiens, MCF7; MTT, 24 h
Parameter: IC50 (µM)

Smi	Assay System	IC50 / µM
Nc1ccc(CNC(=O)Cc2c[nH]c3ccccc23)cc1	MCF7 (human breast cancer) cells	0.84

A = Nc1ccc(CC(=O)N(CCc2c[nH]c3ccccc23)Cc2ccccc2)cc1
B = Nc1ccc(CN(CCCO)C(=O)Cc2c[nH]c3ccccc23)cc1
Between A and B , which one shows the larger IC50 value? State the label of the item chosen.
A

* * *

# Tested on: 3T3 (mouse embryonic fibroblast) cells
# Assay Name: MTT viability assay, 3T3
# Format: cell-based
# Condition Context: 24 h, normal cells
Parameter: IC50 (µM)
Expressed in µM, but write only the number.

Observe how each entry below is paired with its result.
Smi	Assay System	Test Result
NC(=O)CN(Cc1ccc(N)cc1)C(=O)Cc1c[nH]c2ccccc12	3T3 (mouse embryonic fibroblast) cells	0.11
Nc1ccc(CN(Cc2ccc(O)cc2)C(=O)Cc2c[nH]c3ccccc23)cc1	3T3 (mouse embryonic fibroblast) cells	32
O=C(CCc1ccc(O)cc1)N(CCc1c[nH]c2ccccc12)Cc1ccccc1	3T3 (mouse embryonic fibroblast) cells	164
Nc1ccc(CNC(=O)Cc2c[nH]c3ccccc23)cc1	3T3 (mouse embryonic fibroblast) cells	0.63

Then this molecule:
Would you kindly share the measured IC50 for `Nc1ccc(CC(=O)Nc2ccc(CC(=O)N(CCc3c[nH]c4ccccc34)Cc3ccccc3)cc2)cc1` ?
0.5
